Cited source for all entries: patent US7998940B2

Assign IC50 to each entry below.
Test system: full length human vWF binding to lyophilized platelets
assay.summary: Full length human von Willebrand Factor platelet binding assay (FACS)
Type: cell-based
recorded.conditions: 5 nM full length human vWF, lyophilized platelets, botrocetin; units in the cell: lower bound pM, upper bound nM; read-out: Inhibition of full length hVWF binding in FACS assay, IC50 range
Oligonucleotides are written 5' to 3', each unit as a sugar letter and its base; * is a phosphorothioate linkage, no mark a phosphodiester; rarer units and linkages stand in square brackets, end groups in braces. Plain capitals give the bases only. [invdT] = inverted (3'-3') thymidine; d = 2'-deoxy (DNA); r = 2'-OH (RNA)

Qu. # query: IC50 of entry GGCGTGCAGTGCCTATTCTAGGCCGTGCGGTGCCTCCGTCACGCC-3T (DNA, [invdT] at 3' end, backbone not given here) [ARC 1027, minimized DNA aptamer]
Ans. 208 to 4200 pM

Qu. Quick one: GGCGTGCAGTGCC-[PEG]-GGCCGTGCGGTGCCTCCGTCACGCC-3T (DNA GGCGTGCAGTGCCGGCCGTGCGGTGCCTCCGTCACGCCT; chemistry not fully specified) [ARC1029, minimized DNA aptamer]
Ans. 333 to 1100 pM

Qu. // next record GGAGCCACGGGGTGGGTAGACGGCGGGTATGTGGCTCC (rGrGrArGdCdCrAdCrGrGrGrGdTrGrGrGdTrArGrAdCrGrGdCrGrGrGdTrAdTrGdTrGrGdCdTdCdC) [SEQ ID NO 180, minimized rRdY aptamer]
Ans. 731 to 3800 pM
